tested_system: T1, hPRLR.mmh (soluble monomeric human PRLR) (human)
T1 construct: soluble monomeric PRLR protein
T1 chain: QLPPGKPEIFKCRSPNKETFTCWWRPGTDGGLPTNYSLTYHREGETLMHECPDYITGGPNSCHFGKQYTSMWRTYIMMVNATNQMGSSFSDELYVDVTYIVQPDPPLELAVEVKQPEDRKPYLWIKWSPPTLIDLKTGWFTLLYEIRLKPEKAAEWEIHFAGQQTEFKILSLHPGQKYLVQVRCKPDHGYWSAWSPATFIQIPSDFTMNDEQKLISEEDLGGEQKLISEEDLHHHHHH
assay_name: SPR (Biacore), antibody capture, 37 C
Method: Measurements were conducted on a T200 Biacore instrument. Kinetic association (kₐ) and dissociation (kd) rate constants were determined by processing and fitting the data to a 1:1 binding model using Scrubber 2.0 curve fitting software.
List of T 1/2 values.
Give just the number in min; leave the unit off.

Guide cases for T 1/2, answers given:
[
  {
    "binder": "H1H6792P (antibody, human IgG1, V domains shown, human IgG1 Fc (H1H)) VH: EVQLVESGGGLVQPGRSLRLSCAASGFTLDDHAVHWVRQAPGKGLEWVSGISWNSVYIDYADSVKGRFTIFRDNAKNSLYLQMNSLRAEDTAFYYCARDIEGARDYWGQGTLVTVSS VL: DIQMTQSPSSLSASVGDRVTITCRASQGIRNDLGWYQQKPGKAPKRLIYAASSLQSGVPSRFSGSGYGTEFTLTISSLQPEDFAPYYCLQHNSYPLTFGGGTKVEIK",
    "T 1/2 [min]": 5
  },
  {
    "binder": "H1H6800P (antibody, human IgG1, V domains shown, human IgG1 Fc (H1H)) VH: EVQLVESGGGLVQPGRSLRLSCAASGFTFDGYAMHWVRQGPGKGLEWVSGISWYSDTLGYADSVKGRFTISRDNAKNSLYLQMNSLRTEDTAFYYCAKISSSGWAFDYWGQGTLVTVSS VL: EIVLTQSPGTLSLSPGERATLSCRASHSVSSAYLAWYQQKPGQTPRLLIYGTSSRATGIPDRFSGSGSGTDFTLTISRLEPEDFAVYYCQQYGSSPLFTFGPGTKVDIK",
    "T 1/2 [min]": 10
  }
]

Documented T 1/2 of H1H6790P (antibody, human IgG1, V domains shown, human IgG1 Fc (H1H)) VH: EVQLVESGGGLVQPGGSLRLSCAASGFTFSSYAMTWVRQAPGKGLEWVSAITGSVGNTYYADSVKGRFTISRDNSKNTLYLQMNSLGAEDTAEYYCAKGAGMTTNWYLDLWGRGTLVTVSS VL: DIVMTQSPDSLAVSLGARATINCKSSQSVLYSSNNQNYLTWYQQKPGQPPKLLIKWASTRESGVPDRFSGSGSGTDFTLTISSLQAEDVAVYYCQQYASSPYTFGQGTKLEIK : 4

Numbers sourced from patent US20180185504A1.
